IC50 for assorted compounds
# TESTED_ON: USP25 (USP25-His6, Boston Biochem E-546) (Homo sapiens, UniProt Q9UHP3)
# Construct: His6 (C); purchased Boston Biochem E-546
# Sequence (Q9UHP3 1-1055): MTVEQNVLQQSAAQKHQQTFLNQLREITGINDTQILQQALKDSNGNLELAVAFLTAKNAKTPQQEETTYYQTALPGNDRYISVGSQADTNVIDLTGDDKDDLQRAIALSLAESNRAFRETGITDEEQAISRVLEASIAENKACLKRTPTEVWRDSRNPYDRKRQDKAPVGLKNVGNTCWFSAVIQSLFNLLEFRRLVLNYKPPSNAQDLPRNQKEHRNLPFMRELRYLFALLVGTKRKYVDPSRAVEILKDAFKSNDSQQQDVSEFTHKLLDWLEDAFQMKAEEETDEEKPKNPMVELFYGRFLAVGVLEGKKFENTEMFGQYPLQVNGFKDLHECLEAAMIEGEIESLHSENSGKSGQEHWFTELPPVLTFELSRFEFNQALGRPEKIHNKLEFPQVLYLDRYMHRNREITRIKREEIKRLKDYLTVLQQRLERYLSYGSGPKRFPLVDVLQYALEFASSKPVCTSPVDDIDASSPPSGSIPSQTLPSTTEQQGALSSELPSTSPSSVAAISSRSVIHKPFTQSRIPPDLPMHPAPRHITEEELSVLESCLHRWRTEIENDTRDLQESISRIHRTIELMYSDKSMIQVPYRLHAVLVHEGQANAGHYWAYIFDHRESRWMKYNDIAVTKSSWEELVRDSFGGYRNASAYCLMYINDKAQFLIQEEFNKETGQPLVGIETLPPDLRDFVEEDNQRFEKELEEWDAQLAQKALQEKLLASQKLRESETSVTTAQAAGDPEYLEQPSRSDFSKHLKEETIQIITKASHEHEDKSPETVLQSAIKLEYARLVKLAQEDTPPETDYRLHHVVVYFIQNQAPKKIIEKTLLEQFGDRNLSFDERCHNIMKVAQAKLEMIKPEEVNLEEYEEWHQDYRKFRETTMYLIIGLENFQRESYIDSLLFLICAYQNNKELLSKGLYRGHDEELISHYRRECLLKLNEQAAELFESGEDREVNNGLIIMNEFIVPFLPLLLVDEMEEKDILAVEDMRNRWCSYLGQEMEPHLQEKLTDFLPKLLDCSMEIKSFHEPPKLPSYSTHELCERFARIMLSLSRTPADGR
# ASSAY_REMARKS: Ubiquitin-Rhodamine 110 Assay for USP25 Activity, Example A-3
# Assay type: biochemical
# MEASUREMENT_CONTEXT: Ubiquitin-Rhodamine 110 assay, Example A-3; read-out: USP25 A-3 IC50 range

COMPOUND | TESTED_ON | IC50
Cc1nc2sc(C(=O)N[C@@H]3CCc4cc(N5CCNCC5)ccc4C3)c(N)c2s1 (single isomer, unassigned) | USP25 (USP25-His6, Boston Biochem E-546) (Homo sapiens, UniProt Q9UHP3) | > 2000 nM
Cc1ccc2c(N)c(C(=O)N[C@H]3CCc4nc(N5C[C@@H](N)[C@H](C(F)F)C5)ncc4C3)sc2n1 | USP25 (USP25-His6, Boston Biochem E-546) (Homo sapiens, UniProt Q9UHP3) | > 2000 nM
Cc1ccc2c(N)c(C(=O)N[C@H]3CCc4nc(N5C[C@@H]6CCN[C@H](C5)C6(F)F)ccc4C3)sc2n1 | USP25 (USP25-His6, Boston Biochem E-546) (Homo sapiens, UniProt Q9UHP3) | 50 to 200 nM
Cc1ccc2c(N)c(C(=O)N[C@H]3CCc4nc(N5C[C@H](N)[C@@]6(CCOC6)C5)ccc4C3)sc2n1 | USP25 (USP25-His6, Boston Biochem E-546) (Homo sapiens, UniProt Q9UHP3) | > 2000 nM
[2H]C1([2H])c2c(F)cc(N3CCNCC3)cc2OC[C@@H]1NC(=O)c1sc2nc(C)ccc2c1N (single isomer, unassigned) | USP25 (USP25-His6, Boston Biochem E-546) (Homo sapiens, UniProt Q9UHP3) | 200 to 2000 nM
CC(=O)N[C@@H]1CN(c2ccc3c(n2)CC[C@H](NC(=O)c2sc4nc(C)ccc4c2N)C3)C[C@H]1C(F)F | USP25 (USP25-His6, Boston Biochem E-546) (Homo sapiens, UniProt Q9UHP3) | > 2000 nM
CO[C@]1(C)CN(c2ccc3c(n2)CC[C@H](NC(=O)c2sc4nc(C)ccc4c2N)C3)C[C@@H]1N | USP25 (USP25-His6, Boston Biochem E-546) (Homo sapiens, UniProt Q9UHP3) | 200 to 2000 nM
Cc1cnc2c(N)c(C(=O)N[C@@H]3CCc4cc(N5CCNCC5)ccc4C3)sc2n1 (single isomer, unassigned) | USP25 (USP25-His6, Boston Biochem E-546) (Homo sapiens, UniProt Q9UHP3) | > 2000 nM

----------
# TESTED_ON: USP28 (His-tagged USP28-FL-mammalian) (Homo sapiens, UniProt Q96RU2)
# Construct: Expression of USP28 (1-1077)-TEV-6*His (pTT5 vector) was carried out in Expi293f cells; made in house; host or cells: Expi293F cells (pTT5 vector)
# Sequence (Q96RU2 whole entry): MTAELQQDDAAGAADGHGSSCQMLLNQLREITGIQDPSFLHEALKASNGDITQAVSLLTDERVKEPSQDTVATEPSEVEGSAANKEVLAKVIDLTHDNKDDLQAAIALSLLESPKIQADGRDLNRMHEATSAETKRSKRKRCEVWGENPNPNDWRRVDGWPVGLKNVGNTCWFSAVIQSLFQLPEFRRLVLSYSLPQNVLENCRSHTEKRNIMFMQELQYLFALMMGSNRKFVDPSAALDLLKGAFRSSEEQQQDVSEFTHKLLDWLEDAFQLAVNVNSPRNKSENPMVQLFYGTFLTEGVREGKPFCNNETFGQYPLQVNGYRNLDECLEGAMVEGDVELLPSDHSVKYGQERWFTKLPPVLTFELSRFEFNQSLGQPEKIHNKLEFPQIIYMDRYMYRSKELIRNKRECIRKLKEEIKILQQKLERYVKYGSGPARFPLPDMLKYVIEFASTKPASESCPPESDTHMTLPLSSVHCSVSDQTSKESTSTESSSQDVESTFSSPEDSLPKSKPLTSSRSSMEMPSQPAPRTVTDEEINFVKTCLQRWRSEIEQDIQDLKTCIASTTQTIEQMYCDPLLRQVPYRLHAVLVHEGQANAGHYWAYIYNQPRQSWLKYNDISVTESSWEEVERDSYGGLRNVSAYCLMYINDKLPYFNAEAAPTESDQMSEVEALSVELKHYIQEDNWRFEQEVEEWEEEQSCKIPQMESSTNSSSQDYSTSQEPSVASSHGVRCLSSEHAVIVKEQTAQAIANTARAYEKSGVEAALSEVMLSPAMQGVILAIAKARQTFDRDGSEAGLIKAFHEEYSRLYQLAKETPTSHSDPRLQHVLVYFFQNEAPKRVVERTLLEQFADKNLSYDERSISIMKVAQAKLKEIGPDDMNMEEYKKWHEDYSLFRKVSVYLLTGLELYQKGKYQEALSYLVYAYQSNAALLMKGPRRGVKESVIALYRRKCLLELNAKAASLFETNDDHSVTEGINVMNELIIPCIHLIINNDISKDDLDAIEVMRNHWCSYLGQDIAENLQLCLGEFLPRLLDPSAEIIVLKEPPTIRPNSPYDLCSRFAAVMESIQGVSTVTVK
# ASSAY_REMARKS: Ubiquitin-Rhodamine 110 Assay for USP28 Activity, Example A-1(a)
# Format: biochemical
# MEASUREMENT_CONTEXT: biochemical IC50 range, Ubiquitin-Rhodamine 110 assay, read-out: USP28 A-1(a)
QUANTITY: IC50

COMPOUND | OBS_VALUE
Cc1ccc2c(N)c(C(=O)N[C@H]3COc4cc(OC[C@H]5CNC[C@@H]5C(F)(F)F)ccc4C3)sc2n1 [Example 688] | 1 to 50 nM
CN[C@H]1CN(c2ccc3c(c2)OC[C@H](NC(=O)c2sc4nc(C)ccc4c2N)C3)C[C@H]1COC [Example 679] | 1 to 50 nM
Cc1ccc2c(N)c(C(=O)N[C@H]3COc4cc(N5C[C@H](COC(F)(F)F)[C@H](N)C5)ccc4C3)sc2n1 [Example 673] | 1 to 50 nM
Cc1ccc2c(N)c(C(=O)NC3COc4cc(N5CC6CCNCC65)cc(F)c4C3)sc2n1 (centres unmarked) [Example 664] | 1 to 50 nM
Cc1ccc2c(N)c(C(=O)N[C@H]3COc4nc(N5C[C@@H](N)C6(C5)OCCO6)ccc4C3)sc2n1 [Example 544] | 200 to 2000 nM

----------
# TESTED_ON: USP28 (His-tagged USP28-FL-mammalian) (Homo sapiens, UniProt Q96RU2)
# Construct: Expression of USP28 (1-1077)-TEV-6*His (pTT5 vector) was carried out in Expi293f cells; made in house; host or cells: Expi293F cells (pTT5 vector)
# ASSAY_REMARKS: Ubiquitin-Rhodamine 110 Assay for USP28 Activity, Example A-1(a)
# Format: biochemical
# MEASUREMENT_CONTEXT: Ubiquitin-Rhodamine 110 assay, read-out: USP28 A-1(a) IC50 range
pIC50: −log10 of the molar value.

COMPOUND | TESTED_ON | pIC50
Cc1nc2sc(C(=O)N[C@@H]3CCc4cc(N5CCNCC5)ccc4C3)c(N)c2s1 (single isomer, unassigned) | USP28 (His-tagged USP28-FL-mammalian) (Homo sapiens, UniProt Q96RU2) | 6.70 to 7.30
Cc1ccc2c(N)c(C(=O)N[C@H]3COc4cc(N5C[C@H](N)[C@@]6(CCOC6)C5)ccc4C3)sc2n1 (single isomer, unassigned) | USP28 (His-tagged USP28-FL-mammalian) (Homo sapiens, UniProt Q96RU2) | 7.30 to 9.00
Cc1ccc2c(N)c(C(=O)N[C@@H]3CCc4c(C#N)c(N5CC6CCC(C5)N6)cc(F)c4C3)sc2n1 (single isomer, unassigned) | USP28 (His-tagged USP28-FL-mammalian) (Homo sapiens, UniProt Q96RU2) | 6.70 to 7.30
CO[C@H]1CN(c2cc(F)c3c(c2C#N)CC[C@H](NC(=O)c2sc4nc(C)ccc4c2N)C3)C[C@@H]1N (single isomer, unassigned) | USP28 (His-tagged USP28-FL-mammalian) (Homo sapiens, UniProt Q96RU2) | 7.30 to 9.00
CN[C@H]1CCN(c2ccc3c(c2)CC[C@@H](NC(=O)c2sc4nc(C)cnc4c2N)C3)C1 (single isomer, unassigned) | USP28 (His-tagged USP28-FL-mammalian) (Homo sapiens, UniProt Q96RU2) | < 5.70
Cc1ccc2c(N)c(C(=O)N[C@@H]3CCc4nc(N5C[C@H](CF)[C@H](N)C5)ncc4C3)sc2n1 | USP28 (His-tagged USP28-FL-mammalian) (Homo sapiens, UniProt Q96RU2) | 5.70 to 6.70
Cc1cnc2c(N)c(C(=O)N[C@@H]3CCc4cc(N5CCNCC5)ccc4C3)sc2n1 (single isomer, unassigned) | USP28 (His-tagged USP28-FL-mammalian) (Homo sapiens, UniProt Q96RU2) | 5.70 to 6.70
Cc1ccc2c(N)c(C(=O)N[C@H]3COc4cc(N5CCNCC5)ccc4[C@H]3C)sc2n1 (single isomer, unassigned) | USP28 (His-tagged USP28-FL-mammalian) (Homo sapiens, UniProt Q96RU2) | < 5.70
Cc1cnc2c(N)c(C(=O)N[C@@H]3CCc4cc(N5C[C@H]6C[C@@H]5CN6)ccc4C3)sc2n1 (single isomer, unassigned) | USP28 (His-tagged USP28-FL-mammalian) (Homo sapiens, UniProt Q96RU2) | 5.70 to 6.70
Cc1ccc2c(N)c(C(=O)N[C@H]3CCc4nc(N5CC6CC(C5)N6)ccc4C3)sc2n1 | USP28 (His-tagged USP28-FL-mammalian) (Homo sapiens, UniProt Q96RU2) | 6.70 to 7.30
Cc1ccc2c(N)c(C(=O)N[C@H]3COc4cc(N5C[C@H](CF)[C@H](N)C5)ccc4C3)sc2n1 (single isomer, unassigned) | USP28 (His-tagged USP28-FL-mammalian) (Homo sapiens, UniProt Q96RU2) | 7.30 to 9.00
Cc1nc2sc(C(=O)N[C@@H]3CCc4c(C#N)c(N5CCNCC5)cc(F)c4C3)c(N)c2s1 (single isomer, unassigned) | USP28 (His-tagged USP28-FL-mammalian) (Homo sapiens, UniProt Q96RU2) | 5.70 to 6.70
CN[C@@H]1CN(c2ccc3c(n2)CC[C@H](NC(=O)c2sc4nc(C)ccc4c2N)C3)C[C@@H]1CF | USP28 (His-tagged USP28-FL-mammalian) (Homo sapiens, UniProt Q96RU2) | 6.70 to 7.30
